I'd be grateful if you could share measured MIC90 for these entries.
System: Staphylococcus epidermidis
Test: Antibacterial activity against methicillin-sensitive Staphylococcus epidermidis
Assay type: functional
Please answer using the number first and the unit second.

[Q] // query MIC90 value for entry "CCOC(=O)c1c(-c2ccc(OC)cc2)oc2ccc(OCCCCCCN3C(=O)/C(=N\OC)c4ccccc43)cc12"
[A] 0.5 µg/mL

[Q] Bench note: what MIC90 did "O=C(O)c1cn(C2CC2)c2cc(N3CCNCC3)c(F)cc2c1=O" show?
[A] 0.125 µg/mL

[Q] // MIC90 lookup, key: "CCOC(=O)c1c(-c2ccc(F)cc2)oc2ccc(OCCCCCCN3C(=O)C(=O)c4cc(F)ccc43)cc12"
[A] 1 µg/mL

[Q] Which MIC90 is listed for "CCOC(=O)c1c(-c2ccccc2)oc2ccc(OCCCCN3C(=O)/C(=N\OC)c4cc(F)ccc43)cc12" ?
[A] 0.25 µg/mL

[Q] So what's the measured MIC90 for this one? "CCOC(=O)c1c(-c2ccc(OC)cc2)oc2ccc(OCCCN3C(=O)/C(=N\OC)c4cc(OC)ccc43)cc12"
[A] 0.25 µg/mL

[Q] // MIC90 lookup, key: "CCOC(=O)c1c(-c2ccc(OC)cc2)oc2ccc(OCCCCCCN3C(=O)/C(=N\NC(N)=S)c4cc(F)ccc43)cc12"
[A] 0.5 µg/mL

[Q] // returns reported MIC90 for input "CCOC(=O)c1c(-c2ccc(OC)cc2)oc2ccc(OCCCCCN3C(=O)/C(=N\OC)c4cc(F)ccc43)cc12"
[A] 0.5 µg/mL

[Q] Item "CCOC(=O)c1c(-c2ccc(OC)cc2)oc2ccc(OCCCCCCN3C(=O)/C(=N\NC(N)=S)c4ccccc43)cc12" has what recorded MIC90?
[A] 1 µg/mL

[Q] Suppose we examine the compound "CCO/N=C1\C(=O)N(CCCOc2ccc3oc(-c4ccc(OC)cc4)c(C(=O)OCC)c3c2)c2ccccc21" ; what MIC90 value has been reported?
[A] 1 µg/mL

[Q] Would you mind telling me what MIC90 value was observed for "CCOC(=O)c1c(-c2ccccc2)oc2ccc(OCCCN3C(=O)/C(=N\OC)c4ccccc43)cc12" ?
[A] 0.125 µg/mL

[Q] Recorded MIC90 of "CCO/N=C1\C(=O)N(CCCOc2ccc3oc(-c4ccc(OC)cc4)c(C(=O)OCC)c3c2)c2ccc(OC)cc21" , please.
[A] 1 µg/mL

[Q] # get_value(readout='MIC90', item= "CCOC(=O)c1c(-c2ccc(OC)cc2)oc2ccc(OCCCCCCN3C(=O)C(=O)c4cc(F)ccc43)cc12" )
[A] 1 µg/mL

[Q] Quick one: MIC90 of "CCOC(=O)c1c(-c2ccc(OC)cc2)oc2ccc(OCCCCN3C(=O)/C(=N\OC)c4ccccc43)cc12" ?
[A] 0.125 µg/mL

[Q] Can you share its MIC90? I mean this compound: "CCOC(=O)c1c(-c2ccc(OC)cc2)oc2ccc(OCCCCN3C(=O)/C(=N\OC)c4cc(F)ccc43)cc12"
[A] 0.5 µg/mL

[Q] Returns the measured MIC90 for the input compound. Input: "CCOC(=O)c1c(-c2ccc(OC)cc2)oc2ccc(OCCCCCCN3C(=O)C(=O)c4ccccc43)cc12"
[A] 0.25 µg/mL

[Q] // query MIC90 value for entry "CCO/N=C1\C(=O)N(CCCCOc2ccc3oc(-c4ccc(OC)cc4)c(C(=O)OCC)c3c2)c2ccc(F)cc21"
[A] 1 µg/mL
